Measured values drawn from PubChem BioAssay (EPA / NIEHS) for this set.

assay target: Aryl hydrocarbon receptor (Homo sapiens)
experiment description: ATG_Ahr_CIS: Attagene CIS-FACTORIAL HepG2 Assay for human Aryl Hydrocarbon Receptor (Ahr) (AID 2282930)
applied conditions: HepG2 AhR cis-factorial reporter transcription; actives raise or lower the signal
Activity calls are given as the source filed them. Rule for the calls: active = hit-call score of the fitted dose curve at least 0.9, where 1 is the maximum; inactive = score below 0.9.
test readout: AC50

[[record]]
compound = "CS(=O)(=O)c1cc(C(F)(F)F)ccc1C(=O)c1cnoc1C1CC1"
result = "inactive"

[[record]]
compound = "Cc1cnc(C2=NC(C)(C(C)C)C(=O)N2)c(C(=O)O)c1 (stereo unspecified)"
result = "inactive"

[[record]]
compound = "CCOP(=S)(OCC)Oc1nc(Cl)n(C(C)C)n1"
result = "inactive"

[[record]]
compound = "COP(=S)(OC)SCn1nnc2ccccc2c1=O"
result = "inactive"

[[record]]
compound = "C=CCOC(=O)C(C)(C)OC(=O)c1cc(-n2c(=O)cc(C(F)(F)F)n(C)c2=O)ccc1Cl"
result = "inactive"

[[record]]
compound = "COC(=O)NC(=S)Nc1ccccc1NC(=S)NC(=O)OC"
result = "73.9 µM (active)"

